# test protocol: The drug is tested on WLS-007 corresponding to human gut metagenome with ENA study accession number: PRJEB37062 and ENA sample accession number: ERS12561742 for biotransformation under anaerobic condition. The drug concentrations were measured over 9 timepoints collected between 0 and 24 hours of incubation by liquid-chromatography-coupled mass spectrometry (LC–MS); note: call rule not given here
# assay context: 2 µM
recorded endpoint: Bacterial Biotransformation

Determine from records and report Bacterial Biotransformation for CN(C(=O)CN(CCO)CC(=O)N(C)C(C)(C)Cc1ccccc1)C(C)(C)Cc1ccccc1
Compound NOT metabolized

Hello, please tell me recorded Bacterial Biotransformation for this one: CCN(CC)CCNC(=O)c1cc(Cl)c(N)cc1OC [METOCLOPRAMIDE]
Compound NOT metabolized

Please report Bacterial Biotransformation for the following molecule: O=C1[C@H](CC[C@H](O)c2ccc(F)cc2)[C@@H](c2ccc(O)cc2)N1c1ccc(F)cc1
Compound metabolized

Tell me measured Bacterial Biotransformation for CN1CCN(C2=Nc3cc(Cl)ccc3Nc3ccccc32)CC1 please.
Compound NOT metabolized

Kindly indicate its recorded Bacterial Biotransformation. Item: CCCCCOC(=O)Nc1nc(=O)n([C@@H]2O[C@H](C)[C@@H](O)[C@H]2O)cc1F
Compound metabolized

In one line, give reported Bacterial Biotransformation of the entry CC(C(=O)O)c1ccc2c(c1)Cc1cccnc1O2 (centres undefined) .
Compound metabolized

Read the entry COC1=CC(=O)C[C@@H](C)[C@]12Oc1c(Cl)c(OC)cc(OC)c1C2=O and write its reported Bacterial Biotransformation.
Compound metabolized

Input CNC(=C[N+](=O)[O-])NCCSCc1csc(CN(C)C)n1 , output reported Bacterial Biotransformation.
Compound NOT metabolized

For the next question, use this molecule.
For the molecule CN1C(=O)CCS(=O)(=O)C1c1ccc(Cl)cc1 (centres undefined) , give its measured Bacterial Biotransformation value.
Compound NOT metabolized

###

# test protocol: The drug is tested on Z-019 corresponding to rat gut metagenome with ENA study accession number: PRJEB37062 and ENA sample accession number: ERS12561818 for biotransformation under anaerobic condition. The drug concentrations were measured over 9 timepoints collected between 0 and 24 hours of incubation by liquid-chromatography-coupled mass spectrometry (LC–MS)
# assay context: 2 µM
recorded endpoint: Bacterial Biotransformation

Answer with reported Bacterial Biotransformation of CO[C@]12C[C@@H](COC(=O)c3cncc(Br)c3)CN(C)[C@@H]1Cc1cn(C)c3cccc2c13
Compound NOT metabolized

Recall and state the measured Bacterial Biotransformation for Cc1ccccc1N1C(=O)c2cc(S(N)(=O)=O)c(Cl)cc2NC1C (centres undefined) .
Compound NOT metabolized

Tell me Bacterial Biotransformation reported for CC(CN1c2ccccc2Sc2ccccc21)N(C)C (centres undefined)
Compound NOT metabolized

###

# test protocol: The drug is tested on Z-011 corresponding to mouse gut metagenome with ENA study accession number: PRJEB37062 and ENA sample accession number: ERS12561811 for biotransformation under anaerobic condition. The drug concentrations were measured over 9 timepoints collected between 0 and 24 hours of incubation by liquid-chromatography-coupled mass spectrometry (LC–MS)
# assay context: 2 µM
recorded endpoint: Bacterial Biotransformation

Return reported Bacterial Biotransformation. Input compound: CCN(CC)C(=O)/C(C#N)=C/c1cc(O)c(O)c([N+](=O)[O-])c1
Compound metabolized

Specify reported Bacterial Biotransformation for the compound shown: CC(=O)O[C@]1(C(C)=O)CC[C@H]2[C@@H]3C=C(Cl)C4=CC(=O)[C@@H]5C[C@@H]5[C@]4(C)[C@H]3CC[C@@]21C [CYPROTERONE ACETATE]
Compound metabolized
